// inhibition at 900 g/ha lookup, one value per entry
# System: oilseed rape (BRSNS)
# TEST DETAILS: Selectivity test, PPI, cool season crop
# Type: in vivo, Brassica napus
# CONDITION SUMMARY: Brassica napus, PPI application, 900 g/ha, read-out: Percent inhibition BRSNS
MEASURE NAME: inhibition at 900 g/ha (%)

| MOLECULE | READOUT NUMBER |
| --- | --- |
| CCN(CC)C(=O)n1cnc(S(=O)(=O)C(F)(F)Br)n1 [Example 1] | 100 |
| C=C(Br)CC(F)(F)S(=O)(=O)c1ncn(C(=O)N(CC)CC)n1 [Example 19] | 95 |
| CCSC(F)(F)S(=O)(=O)c1ncn(C(=O)N(CC)CC)n1 [Example 8] | 100 |
| C=C(C)CC(F)(F)S(=O)(=O)c1ncn(C(=O)N(CC)CC)n1 [Example 18] | 100 |
| C=CCC(F)(F)S(=O)(=O)c1ncn(C(=O)N(CC)CC)n1 [Example 17] | 95 |

----------
# System: AGRRE (quackgrass (seedling))
# TEST DETAILS: Pre-plant incorporated (PPI) herbicidal activity, cool season
# Assay type: in vivo, Elymus repens
# CONDITION SUMMARY: weed, PPI application, 900 g/ha
Percent inhibition AGRRE vs 60%: at or above is 1, below is -1.

| SMILES TEXT | QUALITATIVE LABEL |
| --- | --- |
| CCN(CC)C(=O)n1cnc(S(=O)(=O)C(F)(F)SC)n1 | 1 |
| C=C(CC(F)(F)S(=O)(=O)c1ncn(C(=O)N(CC)CC)n1)C[Si](C)(C)C | 1 |
| CCN(CC)C(=O)n1cnc(S(=O)(=O)C(F)(F)SCc2ccccc2)n1 | -1 |
| CCN(CC)C(=O)n1cnc(S(=O)(=O)C(F)(F)C(F)(F)Br)n1 | 1 |
| CCN(CC)C(=O)n1cnc(S(=O)(=O)C(F)(F)C(F)F)n1 | 1 |
| CCN(CC)C(=O)n1cnc(S(=O)(=O)C(F)(F)Cl)n1 | 1 |
| CCN(CC)C(=O)n1cnc(S(=O)(=O)C(F)(F)SCC(=O)OC)n1 | -1 |

----------
# Tested on: SINAR (wild mustard)
# TEST DETAILS: Pre-plant incorporated (PPI) herbicidal activity, cool season
# Format: in vivo, Sinapis arvensis
# CONDITION SUMMARY: Brassica; weed, PPI application, 30 g/ha; read-out: Percent inhibition SINAR

| MOLECULE | inhibition at 30 g/ha |
| --- | --- |
| C=C(C)CC(F)(F)S(=O)(=O)c1ncn(C(=O)N(CC)CC)n1 [Example 18] | 100% |
| CCN(CC)C(=O)n1cnc(S(=O)(=O)C(F)(F)Br)n1 [Example 1] | 100% |
| CCSC(F)(F)S(=O)(=O)c1ncn(C(=O)N(CC)CC)n1 [Example 8] | 100% |
| C=CCC(F)(F)S(=O)(=O)c1ncn(C(=O)N(CC)CC)n1 [Example 17] | 70% |

----------
# System: AMARE (redroot pigweed)
# TEST DETAILS: Pre-plant incorporated (PPI) herbicidal activity, warm season
# Format: in vivo, Amaranthus retroflexus
# CONDITION SUMMARY: PPI application, 30 g/ha
Entries annotated with measured Percent inhibition AMARE
MEASURE NAME: Percent inhibition AMARE (%)

| COMPOUND | TEST SYSTEM | MEASURE NAME | READOUT NUMBER |
| --- | --- | --- | --- |
| CCN(CC)C(=O)n1cnc(S(=O)(=O)C(F)(F)SC)n1 [Example 9] | AMARE (redroot pigweed) | Percent inhibition AMARE | 90 |
| C=C(CC(F)(F)S(=O)(=O)c1ncn(C(=O)N(CC)CC)n1)C[Si](C)(C)C [Example 20] | AMARE (redroot pigweed) | Percent inhibition AMARE | 0 |
| CCN(CC)C(=O)n1cnc(S(=O)(=O)C(F)(F)C(F)F)n1 [Example 16] | AMARE (redroot pigweed) | Percent inhibition AMARE | 100 |
| CCN(CC)C(=O)n1cnc(S(=O)(=O)C(F)(F)SCC(=O)OC)n1 [Example 11] | AMARE (redroot pigweed) | Percent inhibition AMARE | 90 |
| CCN(CC)C(=O)n1cnc(S(=O)(=O)C(F)(F)SCCOC)n1 [Example 13] | AMARE (redroot pigweed) | Percent inhibition AMARE | 90 |

----------
# Test system: GALAP (catchweed bedstraw)
# TEST DETAILS: Pre-plant incorporated (PPI) herbicidal activity, cool season
# Type: in vivo, Galium aparine
# CONDITION SUMMARY: Galium aparine; weed, PPI application, 100 g/ha; read-out: Percent inhibition GALAP

| MOLECULE | inhibition at 100 g/ha / % |
| --- | --- |
| CCN(CC)C(=O)n1cnc(S(=O)(=O)C(F)(F)Br)n1 [Example 1] | 100 |
| C=C(C)CC(F)(F)S(=O)(=O)c1ncn(C(=O)N(CC)CC)n1 [Example 18] | 70 |
| CCSC(F)(F)S(=O)(=O)c1ncn(C(=O)N(CC)CC)n1 [Example 8] | 100 |
| C=CCC(F)(F)S(=O)(=O)c1ncn(C(=O)N(CC)CC)n1 [Example 17] | 40 |
| C=C(Br)CC(F)(F)S(=O)(=O)c1ncn(C(=O)N(CC)CC)n1 [Example 19] | 100 |

----------
# Tested on: STEME (common chickweed)
# TEST DETAILS: Pre-plant incorporated (PPI) herbicidal activity, cool season
# Format: in vivo, Stellaria media
# CONDITION SUMMARY: weed, PPI application, 30 g/ha

| SMILES TEXT | READOUT UNIT | Percent inhibition STEME |
| --- | --- | --- |
| CCN(CC)C(=O)n1cnc(S(=O)(=O)C(F)(F)SC)n1 | % | 70 |
| CCN(CC)C(=O)n1cnc(S(=O)(=O)C(F)(F)Cl)n1 | % | 60 |
| CCN(CC)C(=O)n1cnc(S(=O)(=O)C(F)(F)SCc2ccccc2)n1 | % | 0 |
| CCN(CC)C(=O)n1cnc(S(=O)(=O)C(F)(F)SCCOC)n1 | % | 0 |
| CCN(CC)C(=O)n1cnc(S(=O)(=O)C(F)(F)F)n1 | % | 60 |
| CCN(CC)C(=O)n1cnc(S(=O)(=O)C(F)(F)C(F)F)n1 | % | 75 |
| CCN(CC)C(=O)n1cnc(S(=O)(=O)C(F)(F)SCC(=O)OC)n1 | % | 0 |
| CCN(CC)C(=O)n1cnc(S(=O)(=O)C(F)(F)C(F)(F)Br)n1 | % | 10 |

----------
# Test system: BROTE (downy brome)
# TEST DETAILS: Pre-emergence herbicidal activity, cool season
# Format: in vivo, Bromus tectorum
# CONDITION SUMMARY: GR80 = lowest tested rate (300, 100, 30, 10 g/ha) with 80% or greater inhibition; approx. 14 days after treating; 18/13° C.
Catalogue of Pre-emergence activity (GR80) BROTE readings, one per entry.
MEASURE NAME: Pre-emergence activity (GR80) BROTE (g/ha)

| SMILES TEXT | READOUT UNIT | READOUT NUMBER |
| --- | --- | --- |
| CCCN(CC)C(=O)n1cnc(S(=O)(=O)C(F)(F)C(F)(F)Br)n1 | g/ha | 300 |
| CON(C)C(=O)n1cnc(S(=O)(=O)C(F)(F)C(F)(F)Br)n1 | g/ha | 30 |
| CCN(CC)C(=O)n1cnc(S(=O)(=O)C(F)(F)C(F)(F)Br)n1 | g/ha | 300 |
| CON(C)C(=O)n1cnc(S(=O)(=O)C(F)(F)C(F)F)n1 | g/ha | 300 |
| C=C(C)CC(F)(F)S(=O)(=O)c1ncn(C(=O)N(CC)CC)n1 | g/ha | 300 |

----------
Recorded Percent inhibition SINAR, one value per entry.
# Test system: SINAR (wild mustard)
# TEST DETAILS: Pre-plant incorporated (PPI) herbicidal activity, cool season
# Type: in vivo, Sinapis arvensis
# CONDITION SUMMARY: weed, PPI application, 100 g/ha

| COMPOUND | TEST SYSTEM | READOUT UNIT | Percent inhibition SINAR |
| --- | --- | --- | --- |
| CCN(CC)C(=O)n1cnc(S(=O)(=O)C(F)(F)F)n1 [Example 2] | SINAR (wild mustard) | % | 100 |
| CCN(CC)C(=O)n1cnc(S(=O)(=O)C(F)(F)SCCOC)n1 [Example 13] | SINAR (wild mustard) | % | 100 |
| CCN(CC)C(=O)n1cnc(S(=O)(=O)C(F)(F)C(F)F)n1 [Example 16] | SINAR (wild mustard) | % | 100 |
| CCN(CC)C(=O)n1cnc(S(=O)(=O)C(F)(F)SCc2ccccc2)n1 [Example 10] | SINAR (wild mustard) | % | 100 |
| CCN(CC)C(=O)n1cnc(S(=O)(=O)C(F)(F)SC)n1 [Example 9] | SINAR (wild mustard) | % | 100 |
| CCN(CC)C(=O)n1cnc(S(=O)(=O)C(F)(F)SCC(=O)OC)n1 [Example 11] | SINAR (wild mustard) | % | 0 |
| CCN(CC)C(=O)n1cnc(S(=O)(=O)C(F)(F)Cl)n1 [Example 3] | SINAR (wild mustard) | % | 100 |
| C=C(CC(F)(F)S(=O)(=O)c1ncn(C(=O)N(CC)CC)n1)C[Si](C)(C)C [Example 20] | SINAR (wild mustard) | % | 80 |
| CCN(CC)C(=O)n1cnc(S(=O)(=O)C(F)(F)C(F)(F)Br)n1 [Example 4] | SINAR (wild mustard) | % | 100 |
